# Lookup of reported abundance fitness keyed by entry
B1: Myocardin, residues 363 to 406; numbered along this chain, Q8IZQ8 (parent)
chain: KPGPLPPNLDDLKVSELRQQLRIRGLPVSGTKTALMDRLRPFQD

variants of: B1; assay: abundance fitness (aPCA) (normalised: wild type 0, dead -1); higher = more abundant; growth selection in yeast, the domain comes from the species named; settings: Homo sapiens
recorded-endpoint: abundance fitness

# mutation-label, recorded-result
rows = [
    ("D10C", 0.245),
    ("L5S", -0.341),
    ("R18H", -0.321),
    ("P4H", 0.093),
    ("P41S", 0.064),
    ("V28P", -0.198),
    ("D10Q", -0.163),
    ("T33V", 0.016),
    ("G3Q", 0.295),
    ("T31R", -0.319),
    ("I23F", -0.378),
    ("R40G", -0.294),
    ("P27S", -0.043),
    ("Q43G", -0.152),
    ("F42Y", -0.102),
    ("G30S", -0.779),
    ("V14C", -0.603),
    ("I23N", -0.45),
    ("L17E", -0.454),
    ("G30N", -0.871),
    ("L35K", -0.469),
    ("V28E", 0.082),
    ("P2Q", 0.374),
    ("M36W", -0.935),
    ("P27E", -0.245),
    ("P27I", -0.374),
    ("F42C", -0.138),
    ("S15M", -0.245),
    ("P2I", 0.466),
    ("L12Q", -0.506),
    ("K1I", 0.021),
    ("N8W", -0.915),
    ("P7Y", -0.085),
    ("L26S", -0.562),
    ("P7G", 0.142),
    ("F42E", -0.148),
    ("P7D", 0.052),
    ("P41L", -0.132),
    ("P6D", -0.195),
    ("A34E", 0.011),
    ("L5G", -0.283),
    ("L39G", -0.528),
    ("P6W", -0.484),
    ("P27T", -0.39),
    ("Q20W", -0.767),
    ("P2E", 0.401),
    ("V28C", 0.207),
    ("R40M", -0.25),
    ("L5N", -0.276),
    ("L26M", 0.075),
    ("P4Y", 0.368),
    ("R40D", -0.614),
    ("T31Q", -0.273),
    ("S15A", 0.113),
    ("V14S", -0.486),
    ("K32D", -0.489),
    ("R22K", 0.063),
    ("G3H", 0.059),
    ("A34L", -0.721),
    ("R38C", -0.929),
    ("V28I", 0.217),
    ("M36A", -0.255),
    ("R24V", -0.528),
    ("R38S", -0.479),
    ("R40S", -0.107),
    ("L35H", -0.943),
    ("R18Y", -0.744),
    ("S15V", -0.243),
    ("R38V", -0.735),
    ("Q43K", -0.503),
    ("R40A", 0.092),
    ("D44F", -0.325),
    ("L21A", -0.037),
    ("Q19L", -0.198),
]
